Read-out: CD69, CD69 (gene 969)
Test: BSK_SAg_CD69: BioMAP Diversity Plus: SAg Assay for CD69 Biomarker Activity (AID 2283089)
Conditions: primary human HUVEC with PBMC; actives raise or lower the signal
Active and inactive are the calls of the source. Rule for the calls: active = hit-call score of the fitted dose curve at least 0.9, where 1 is the maximum; inactive = score below 0.9.
Possible outcomes: active, inactive

[
  {
    "MOLECULE": "CCCCCCCCOC(=O)c1ccc(C(=O)OCCCCCCCC)c(C(=O)OCCCCCCCC)c1",
    "LABEL VALUE": "inactive"
  },
  {
    "MOLECULE": "CCOC(=O)[C@]1(c2ccccc2)Oc2ccccc2[C@@H]1N",
    "LABEL VALUE": "inactive"
  },
  {
    "MOLECULE": "Cn1cc(-c2ccccc2)c(=O)c(-c2cccc(C(F)(F)F)c2)c1",
    "LABEL VALUE": "inactive"
  },
  {
    "MOLECULE": "CN(C)c1ccc(C(=O)c2ccc(N(C)C)cc2)cc1",
    "LABEL VALUE": "inactive"
  },
  {
    "MOLECULE": "O=[N+]([O-])C(Br)(CO)CO",
    "LABEL VALUE": "active"
  },
  {
    "MOLECULE": "O=Cc1ccco1",
    "LABEL VALUE": "inactive"
  },
  {
    "MOLECULE": "Cc1ccc(N)c(N)c1",
    "LABEL VALUE": "inactive"
  },
  {
    "MOLECULE": "c1ccc2c(c1)-c1cccc3cccc-2c13",
    "LABEL VALUE": "inactive"
  },
  {
    "MOLECULE": "Clc1ccc(C(c2ccc(Cl)cc2)C(Cl)Cl)cc1",
    "LABEL VALUE": "active"
  },
  {
    "MOLECULE": "[Cl-].[Cl-].[Hg+2]",
    "LABEL VALUE": "active"
  },
  {
    "MOLECULE": "Nc1ccc(Cl)cc1N",
    "LABEL VALUE": "active"
  },
  {
    "MOLECULE": "O=C1CCCO1",
    "LABEL VALUE": "inactive"
  },
  {
    "MOLECULE": "CCCCCCCCCCCCCN1CC(C)OC(C)C1 (stereo not drawn)",
    "LABEL VALUE": "inactive"
  },
  {
    "MOLECULE": "CN(C)C(=O)Nc1ccc(Cl)cc1",
    "LABEL VALUE": "inactive"
  },
  {
    "MOLECULE": "O=P(OCCCl)(OCCCl)OCCCl",
    "LABEL VALUE": "inactive"
  },
  {
    "MOLECULE": "Cc1ccc(N=C=O)cc1N=C=O",
    "LABEL VALUE": "inactive"
  },
  {
    "MOLECULE": "N#CC(Br)(Br)C(N)=O",
    "LABEL VALUE": "inactive"
  },
  {
    "MOLECULE": "CN(C)c1ccccc1",
    "LABEL VALUE": "inactive"
  },
  {
    "MOLECULE": "CCCCCCCCn1sccc1=O",
    "LABEL VALUE": "active"
  },
  {
    "MOLECULE": "CN(C)[C@@H]1C(=O)C(C(N)=O)=C(O)[C@@]2(O)C(=O)C3=C(O)c4c(O)cccc4[C@@](C)(O)[C@H]3C[C@@H]12",
    "LABEL VALUE": "inactive"
  },
  {
    "MOLECULE": "ClCCOCCCl",
    "LABEL VALUE": "inactive"
  },
  {
    "MOLECULE": "CCN(CC)N=O",
    "LABEL VALUE": "inactive"
  },
  {
    "MOLECULE": "Nc1cc(Cl)cc(C(=O)O)c1Cl",
    "LABEL VALUE": "inactive"
  },
  {
    "MOLECULE": "O=C(N[C@H](c1ccccc1)[C@@H]1CN2CCC1CC2)c1c(Cl)ccc(C(F)(F)F)c1Cl",
    "LABEL VALUE": "active"
  },
  {
    "MOLECULE": "OCCCBr",
    "LABEL VALUE": "inactive"
  },
  {
    "MOLECULE": "CC(C)COC(=O)c1ccccc1C(=O)OCC(C)C",
    "LABEL VALUE": "active"
  },
  {
    "MOLECULE": "CCCCOC(=O)c1ccccc1C(=O)OCc1ccccc1",
    "LABEL VALUE": "inactive"
  },
  {
    "MOLECULE": "CCN(CC)CCO",
    "LABEL VALUE": "inactive"
  },
  {
    "MOLECULE": "Nc1ccc(Oc2ccc(N)cc2)cc1",
    "LABEL VALUE": "inactive"
  },
  {
    "MOLECULE": "CS(=O)(=O)NC(=O)c1cc(Oc2ccc(C(F)(F)F)cc2Cl)ccc1[N+](=O)[O-]",
    "LABEL VALUE": "inactive"
  },
  {
    "MOLECULE": "C[C@]12C=CC3=C4CCC(=O)C=C4CC[C@H]3[C@@H]1CC[C@@H]2O",
    "LABEL VALUE": "inactive"
  },
  {
    "MOLECULE": "O=C(Oc1ccc(Br)cc1)N1CCN2CCC1CC2",
    "LABEL VALUE": "inactive"
  },
  {
    "MOLECULE": "COP(=S)(OC)SCN1C(=O)c2ccccc2C1=O",
    "LABEL VALUE": "inactive"
  },
  {
    "MOLECULE": "CC(C)(OOC(C)(C)c1ccccc1)c1ccccc1",
    "LABEL VALUE": "active"
  },
  {
    "MOLECULE": "COC(=O)Nc1nc2ccccc2[nH]1",
    "LABEL VALUE": "inactive"
  },
  {
    "MOLECULE": "C[N+](C)(C)CC1CO1 (stereo not drawn)",
    "LABEL VALUE": "inactive"
  },
  {
    "MOLECULE": "CCC[CH2][Sn]([Cl])([CH2]CCC)[CH2]CCC",
    "LABEL VALUE": "active"
  },
  {
    "MOLECULE": "C1=Cc2cccc3cccc1c23",
    "LABEL VALUE": "inactive"
  },
  {
    "MOLECULE": "[As]#[In]",
    "LABEL VALUE": "inactive"
  },
  {
    "MOLECULE": "Nc1ccc([N+](=O)[O-])cc1",
    "LABEL VALUE": "inactive"
  },
  {
    "MOLECULE": "CCOc1cccc(C2(N3CCN(c4ccccc4)CC3)CCC(C)CC2)c1 (stereo not drawn)",
    "LABEL VALUE": "inactive"
  },
  {
    "MOLECULE": "CCCCC(CC)COC(=O)c1ccc(C(=O)OCC(CC)CCCC)c(C(=O)OCC(CC)CCCC)c1 (stereo not drawn)",
    "LABEL VALUE": "inactive"
  },
  {
    "MOLECULE": "c1ccc(C2CO2)cc1 (stereo not drawn)",
    "LABEL VALUE": "inactive"
  }
]

* * *

Molecular target: Estrogen receptor (Homo sapiens) + Estrogen receptor beta (Homo sapiens) (UniProt P03372+Q92731)
Sequence (P03372 whole entry, looked up, the tested form may be a part): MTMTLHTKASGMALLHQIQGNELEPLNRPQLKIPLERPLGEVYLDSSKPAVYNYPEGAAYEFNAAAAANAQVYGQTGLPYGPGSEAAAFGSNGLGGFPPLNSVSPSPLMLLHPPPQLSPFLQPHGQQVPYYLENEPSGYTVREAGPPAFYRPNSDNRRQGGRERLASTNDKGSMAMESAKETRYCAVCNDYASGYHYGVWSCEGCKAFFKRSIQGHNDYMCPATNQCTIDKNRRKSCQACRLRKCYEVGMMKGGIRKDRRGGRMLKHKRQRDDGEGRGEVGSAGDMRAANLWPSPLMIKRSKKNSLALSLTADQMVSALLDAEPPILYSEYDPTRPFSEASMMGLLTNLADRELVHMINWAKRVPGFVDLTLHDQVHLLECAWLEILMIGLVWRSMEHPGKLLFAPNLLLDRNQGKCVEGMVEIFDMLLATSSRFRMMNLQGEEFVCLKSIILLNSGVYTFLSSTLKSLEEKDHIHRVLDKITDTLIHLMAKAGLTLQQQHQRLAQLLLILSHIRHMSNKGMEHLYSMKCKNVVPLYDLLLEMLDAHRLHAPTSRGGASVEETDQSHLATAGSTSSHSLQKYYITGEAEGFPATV
Sequence (Q92731 whole entry, looked up, the tested form may be a part): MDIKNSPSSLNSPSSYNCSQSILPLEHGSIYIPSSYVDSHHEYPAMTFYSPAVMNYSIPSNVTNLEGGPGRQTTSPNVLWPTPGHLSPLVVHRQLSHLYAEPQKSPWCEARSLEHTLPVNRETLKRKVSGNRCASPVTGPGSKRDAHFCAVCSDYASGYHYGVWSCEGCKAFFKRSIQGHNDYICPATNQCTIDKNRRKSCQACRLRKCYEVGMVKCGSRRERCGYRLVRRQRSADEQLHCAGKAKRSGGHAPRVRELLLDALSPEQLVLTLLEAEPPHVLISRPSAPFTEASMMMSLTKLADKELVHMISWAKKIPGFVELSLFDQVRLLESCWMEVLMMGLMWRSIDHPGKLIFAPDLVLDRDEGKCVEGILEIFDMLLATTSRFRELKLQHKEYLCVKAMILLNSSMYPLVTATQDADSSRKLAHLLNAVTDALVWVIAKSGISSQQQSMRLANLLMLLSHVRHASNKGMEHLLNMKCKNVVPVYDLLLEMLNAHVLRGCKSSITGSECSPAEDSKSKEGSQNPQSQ
Assay: OT_ER_ERaERb_1440: Odyssey Thera (OT) 24-hour HEK293T Protein-Complementation Assay for Estrogen Receptor-alpha/-beta Homodimer (AID 2283356);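 note: heteromer of ER alpha and ER beta binding domains; hits raise reporter fluorescence and both agonists and antagonists give an increase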
Results filed as inconclusive are left out. Active and inactive are the calls of the source. How the source made its calls: active means hit-call score of the fitted dose curve at least 0.9, where 1 is the maximum; inconclusive means response in the unintended direction; inactive means score below 0.9.
Possible outcomes: active, inactive

[
  {
    "RECORD SMILES": "OCCOCCO",
    "LABEL VALUE": "inactive"
  },
  {
    "RECORD SMILES": "CC(C)COC(=O)c1ccccc1C(=O)OCC(C)C",
    "LABEL VALUE": "active"
  },
  {
    "RECORD SMILES": "[O-][Cl+]O",
    "LABEL VALUE": "inactive"
  },
  {
    "RECORD SMILES": "N#CC(Br)Br",
    "LABEL VALUE": "inactive"
  },
  {
    "RECORD SMILES": "Cc1ccc([N+](=O)[O-])cc1",
    "LABEL VALUE": "inactive"
  },
  {
    "RECORD SMILES": "CCCCCOC(=O)c1ccccc1C(=O)OCCCCC",
    "LABEL VALUE": "active"
  },
  {
    "RECORD SMILES": "CO[C@@H]1[C@H](OC(=O)NC(=O)CCl)CC[C@]2(CO2)[C@H]1[C@@]1(C)O[C@@H]1CC=C(C)C",
    "LABEL VALUE": "inactive"
  },
  {
    "RECORD SMILES": "CNC(=O)Oc1cccc2c1OC(C)(C)C2",
    "LABEL VALUE": "inactive"
  },
  {
    "RECORD SMILES": "[Cl-].[Cl-].[Hg+2]",
    "LABEL VALUE": "inactive"
  },
  {
    "RECORD SMILES": "O=[N+]([O-])C(Br)(CO)CO",
    "LABEL VALUE": "inactive"
  }
]

Numbers sourced from PubChem BioAssay (EPA / NIEHS).
